# System: 494315-158-R-J1-PDC complex spheroid growth, percent test/control;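 note: compound exposure lasted seven days after spheroids formed for three days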
# Assay Comment: Anticancer human tumor 494315-158-R-J1-PDC patient-derived soft tissue sarcoma cell line growth inhibition [Asc]
# Cond: second compound 0.316 µM; first compound 0.00316 µM; stronger effect = lower value
Consider the following molecules; for each one, report its viability, T/C.
Numbers only; they are read as %.

Field request: viability, T/C | item: CCN1CCN(Cc2ccc(Nc3ncc(F)c(-c4cc(F)c5nc(C)n(C(C)C)c5c4)n3)nc2)CC1 + CNC(C)C(=O)NC1CN(S(=O)(=O)c2cccc(S(=O)(=O)N3CCC4CCC(C(=O)NC(c5ccccc5)c5ccccc5)N4C(=O)C(NC(=O)C(C)NC)C3)c2)CCC2CCC(C(=O)NC(c3ccccc3)c3ccccc3)N2C1=O 51.5

For Cn1ncnc1[C@H]1c2n[nH]c(=O)c3cc(F)cc(c23)N[C@@H]1c1ccc(F)cc1 + CNC(C)C(=O)NC1CN(S(=O)(=O)c2cccc(S(=O)(=O)N3CCC4CCC(C(=O)NC(c5ccccc5)c5ccccc5)N4C(=O)C(NC(=O)C(C)NC)C3)c2)CCC2CCC(C(=O)NC(c3ccccc3)c3ccccc3)N2C1=O , what is its reported viability, T/C? 33.7

So what does the record say about viability, T/C for COc1c(OCCCN2CCOCC2)ccc2c3n(c(=NC(=O)c4cnc(N)nc4)nc12)CCN3 + CNC(C)C(=O)NC1CN(S(=O)(=O)c2cccc(S(=O)(=O)N3CCC4CCC(C(=O)NC(c5ccccc5)c5ccccc5)N4C(=O)C(NC(=O)C(C)NC)C3)c2)CCC2CCC(C(=O)NC(c3ccccc3)c3ccccc3)N2C1=O ? 38.2

If you can, please state the reported viability, T/C value of COc1c(OCCCN2CCOCC2)ccc2c3n(c(=NC(=O)c4cnc(N)nc4)nc12)CCN3 + Cc1c(S(C)(=O)=O)c(-c2cc(F)cc(N3CCN(c4ccc(NS(=O)(=O)c5ccc(NC(CCN6CCC(C(=O)OCCCP(=O)(O)O)CC6)CSc6ccccc6)c(S(=O)(=O)C(F)(F)F)c5)cc4)CC3)c2)c(-c2ccc(Cl)cc2)n1C(C)C . 67.6

Form field: reported viability, T/C of CCN1CCN(Cc2ccc(Nc3ncc(F)c(-c4cc(F)c5nc(C)n(C(C)C)c5c4)n3)nc2)CC1 + Cc1c(S(C)(=O)=O)c(-c2cc(F)cc(N3CCN(c4ccc(NS(=O)(=O)c5ccc(NC(CCN6CCC(C(=O)OCCCP(=O)(O)O)CC6)CSc6ccccc6)c(S(=O)(=O)C(F)(F)F)c5)cc4)CC3)c2)c(-c2ccc(Cl)cc2)n1C(C)C 72.2

What value of viability, T/C has been reported for the following molecule? O=C(c1ccc(F)c(F)c1Nc1ccc(I)cc1F)N1CC(O)([C@@H]2CCCCN2)C1 + CNC(C)C(=O)NC1CN(S(=O)(=O)c2cccc(S(=O)(=O)N3CCC4CCC(C(=O)NC(c5ccccc5)c5ccccc5)N4C(=O)C(NC(=O)C(C)NC)C3)c2)CCC2CCC(C(=O)NC(c3ccccc3)c3ccccc3)N2C1=O 46.7

Report viability, T/C for O=C(c1ccc(F)c(F)c1Nc1ccc(I)cc1F)N1CC(O)([C@@H]2CCCCN2)C1 + Cc1c(S(C)(=O)=O)c(-c2cc(F)cc(N3CCN(c4ccc(NS(=O)(=O)c5ccc(NC(CCN6CCC(C(=O)OCCCP(=O)(O)O)CC6)CSc6ccccc6)c(S(=O)(=O)C(F)(F)F)c5)cc4)CC3)c2)c(-c2ccc(Cl)cc2)n1C(C)C please. 71.2

// returns reported viability, T/C for input CNC(C)C(=O)NC1CN(S(=O)(=O)c2cccc(S(=O)(=O)N3CCC4CCC(C(=O)NC(c5ccccc5)c5ccccc5)N4C(=O)C(NC(=O)C(C)NC)C3)c2)CCC2CCC(C(=O)NC(c3ccccc3)c3ccccc3)N2C1=O (stereo not drawn) + Cc1c(S(C)(=O)=O)c(-c2cc(F)cc(N3CCN(c4ccc(NS(=O)(=O)c5ccc(NC(CCN6CCC(C(=O)OCCCP(=O)(O)O)CC6)CSc6ccccc6)c(S(=O)(=O)C(F)(F)F)c5)cc4)CC3)c2)c(-c2ccc(Cl)cc2)n1C(C)C 46.4
